Values compiled from paper PMC10397247.

Target: T1, 4H570-bA
T1 chain: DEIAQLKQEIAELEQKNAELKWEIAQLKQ
Assay: two-hybrid library CCNG1;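 note: natural log of median RNA to DNA barcode read ratio; higher means stronger binding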
assay.endpoint: interaction score
// print number alone

Answered examples (2):
- binder: "DKNAQLKQEIAELEQKNAELEWKIAQLKQ [4H3638-bA]"
  interaction score: -0.717
- binder: "DENAQLEQKIAELKQKNAELEWEIAQLEQ [4H1393-bA]"
  interaction score: -0.941

Recorded interaction score for DKNAQLEQEIAELKQKIAELEWENAQLKQ [4H3172-bA] , please?
-1.11

Recorded interaction score for DENAQLEQKIAELEQKNAELKWEIAQLKQ [4H1338-bA] , please?
-0.499
